# PROTOCOL_NOTES: qHTS assay for small molecules that induce genotoxicity in human embryonic kidney cells expressing luciferase-tagged ATAD5 (AID 651632); further: nearly all actives have a fitted effect of over 15% in size
# RUN_CONDITIONS: HEK293T ATAD5-luciferase induction, 16 h; series mostly up to 83.3 µM
Results filed as inconclusive are left out. Active and inactive are the calls of the source. The call rests on the fitted dose curve; in most records, active means well fitted activation curve with a large enough effect in the repeat runs; inconclusive means weak or mixed curves; inactive means no such curve, though single readings can be large or run the other way.
Respond using exactly one of the listed classes: t = active, f = inactive

Consider the following illustrative entries.
CC(=O)OCC1=C(C(=O)O)N2C(=O)[C@@H](NC(=O)CSc3ccncc3)[C@H]2SC1 : f
O=C(O)c1cccc(C[C@@H]2COc3ccc(OCc4nc5cc(F)ccc5s4)cc3[C@@H]2O)c1 : f
Nc1nc2ccc(OC(F)(F)F)cc2s1 : t
O=C(Oc1ccccc1)c1ccc2ccccc2c1O : t
COC(OC)OC : f

### Prompt Tell me the assay call for "COC(=O)c1sccc1S(N)(=O)=O" please.
### Response f

### Prompt Request: "CC/C=C\C/C=C\C/C=C\CCCCCCCC(=O)OCC"
### Response f

### Prompt Next up: "O=C(Nc1ccc(C(=O)O)c(O)c1)c1ccccc1"
### Response f

### Prompt Entry to check: "CS(=O)(=O)c1ccc([C@@H](C[C@H]2CCC(=O)C2)C(=O)Nc2cnccn2)cc1Cl"
### Response f

### Prompt Also "Cc1cc(CCC(=O)OCCOCCOCCOC(=O)CCc2cc(C)c(O)c(C(C)(C)C)c2)cc(C(C)(C)C)c1O" ?
### Response f
